System: Escherichia coli TOP10
Test: shrunken log2 fold change of peptide-encoding DNA abundance (4.5 h post-induction vs induction); higher = less antimicrobial activity (less host growth inhibition)
Settings: time post-induction: 4.5 h; library: site-saturation at positions 5, 18, 19, 20
VALUE KIND: shrunken log2 fold change

1. RRIRNRPPRLPRPRPRPKQHPRP ... -0.253
2. RRIRVRPPRLPRPRPRPGCIPRP ... -0.0275
3. RRIRGRPPRLPRPRPRPGLDPRP ... 1.24
4. RRIRKRPPRLPRPRPRPYIWPRP ... -0.126
5. RRIRARPPRLPRPRPRPNTQPRP ... -0.0663
6. RRIRERPPRLPRPRPRPVQEPRP ... 0.0869
7. RRIRGRPPRLPRPRPRPEHMPRP ... 0.396
8. RRIRQRPPRLPRPRPRPCYPPRP ... -1.5
9. RRIRKRPPRLPRPRPRPQLDPRP ... 0.207
10. RRIRNRPPRLPRPRPRPNYKPRP ... -0.827
11. RRIRPRPPRLPRPRPRPPTLPRP ... 0.129
12. RRIRYRPPRLPRPRPRPFALPRP ... -0.133
13. RRIRKRPPRLPRPRPRPAYFPRP ... -0.0128
14. RRIRHRPPRLPRPRPRPEISPRP ... 0.0458
15. RRIRPRPPRLPRPRPRPARFPRP ... 0.383
16. RRIRTRPPRLPRPRPRPCFTPRP ... -0.358
17. RRIRPRPPRLPRPRPRPLRPPRP ... 0.726
18. RRIRSRPPRLPRPRPRPENWPRP ... -0.0386
19. RRIRGRPPRLPRPRPRPRGNPRP ... 0.995
20. RRIRDRPPRLPRPRPRPWSIPRP ... -0.105
21. RRIRYRPPRLPRPRPRPSHPPRP ... -0.639
22. RRIRSRPPRLPRPRPRPWFDPRP ... -0.271
23. RRIRMRPPRLPRPRPRPLSKPRP ... -0.103
24. RRIRFRPPRLPRPRPRPIFQPRP ... -0.46
25. RRIRGRPPRLPRPRPRPCWLPRP ... -0.0298
26. RRIRDRPPRLPRPRPRPFGWPRP ... 0.903
27. RRIRERPPRLPRPRPRPVPHPRP ... -0.0329
28. RRIRNRPPRLPRPRPRPFSCPRP ... -0.03
29. RRIRFRPPRLPRPRPRPAPQPRP ... 0.666
30. RRIRKRPPRLPRPRPRPHDAPRP ... 0.437
31. RRIRNRPPRLPRPRPRPHTTPRP ... -0.235
32. RRIRNRPPRLPRPRPRPMSIPRP ... 0.00262

---

System: Escherichia coli TOP10
Experiment: shrunken log2 fold change of peptide-encoding DNA abundance (4.5 h post-induction vs induction); higher = less antimicrobial activity (less host growth inhibition)
Details: time post-induction: 4.5 h; library: site-saturation at positions 5, 18, 19, 20
Classify as follows. Reported shrunken log2 fold change greater than or equal to -0.1: Y. Reported shrunken log2 fold change below: N.

1) RRIRARPPRLPRPRPRPISKPRP ... N
2) RRIRPRPPRLPRPRPRPIGQPRP ... Y
3) RRIRTRPPRLPRPRPRPLYVPRP ... N
4) RRIRGRPPRLPRPRPRPASYPRP ... N
5) RRIRNRPPRLPRPRPRPPKKPRP ... N
6) RRIRKRPPRLPRPRPRPDPAPRP ... Y
7) RRIRYRPPRLPRPRPRPSVIPRP ... N
8) RRIRSRPPRLPRPRPRPGHRPRP ... N
9) RRIRTRPPRLPRPRPRPELTPRP ... Y
10) RRIRRRPPRLPRPRPRPKRTPRP ... Y
11) RRIRARPPRLPRPRPRPVMMPRP ... Y
12) RRIRSRPPRLPRPRPRPDSSPRP ... N
13) RRIRKRPPRLPRPRPRPTEYPRP ... Y
14) RRIRYRPPRLPRPRPRPYSVPRP ... Y
15) RRIRHRPPRLPRPRPRPSWGPRP ... Y

---

Overview of recorded shrunken log2 fold change for various sequences
Test system: Escherichia coli TOP10
Assay: shrunken log2 fold change of peptide-encoding DNA abundance (4.5 h post-induction vs induction); higher = less antimicrobial activity (less host growth inhibition)
Settings: time post-induction: 4.5 h; library: site-saturation at positions 5, 18, 19, 20
VALUE KIND: shrunken log2 fold change

1. RRIRHRPPRLPRPRPRPAMPPRP ... -0.0758
2. RRIRARPPRLPRPRPRPLLNPRP ... 0.373
3. RRIRQRPPRLPRPRPRPMILPRP ... -0.109
4. RRIRERPPRLPRPRPRPHWNPRP ... -0.843
5. RRIRCRPPRLPRPRPRPALCPRP ... 0.185
6. RRIRTRPPRLPRPRPRPEHMPRP ... -0.0375
7. RRIRNRPPRLPRPRPRPGYDPRP ... 0.166
8. RRIRNRPPRLPRPRPRPACNPRP ... -0.148
9. RRIRCRPPRLPRPRPRPPSMPRP ... 0.0264
10. RRIRGRPPRLPRPRPRPTFPPRP ... 0.347
11. RRIRKRPPRLPRPRPRPDQKPRP ... 0.401
12. RRIRIRPPRLPRPRPRPAIIPRP ... -1.09
13. RRIRYRPPRLPRPRPRPEDAPRP ... -0.0333
14. RRIRFRPPRLPRPRPRPLISPRP ... -0.178
15. RRIRERPPRLPRPRPRPFERPRP ... 0.00782
16. RRIRQRPPRLPRPRPRPMWMPRP ... 0.0583
17. RRIRRRPPRLPRPRPRPAILPRP ... -0.017
18. RRIRDRPPRLPRPRPRPQRYPRP ... -0.0811
19. RRIRSRPPRLPRPRPRPKVKPRP ... 0.0666
20. RRIRSRPPRLPRPRPRPFRNPRP ... -0.225
21. RRIRNRPPRLPRPRPRPETQPRP ... 0.162
22. RRIRKRPPRLPRPRPRPIWPPRP ... 0.345
23. RRIRARPPRLPRPRPRPCIDPRP ... 0.306
24. RRIRSRPPRLPRPRPRPYCSPRP ... -0.094
25. RRIRKRPPRLPRPRPRPNSRPRP ... 0.149
26. RRIRSRPPRLPRPRPRPNWMPRP ... -0.0249
27. RRIRDRPPRLPRPRPRPHWHPRP ... -0.192
28. RRIRGRPPRLPRPRPRPVDQPRP ... 0.126
29. RRIRLRPPRLPRPRPRPVVRPRP ... 0.148
30. RRIRLRPPRLPRPRPRPVGGPRP ... 0.516
31. RRIRQRPPRLPRPRPRPAVGPRP ... 0.0738
32. RRIRKRPPRLPRPRPRPFSLPRP ... -0.189

---

System: Escherichia coli TOP10
Experiment: shrunken log2 fold change of peptide-encoding DNA abundance (4.5 h post-induction vs induction); higher = less antimicrobial activity (less host growth inhibition)
Settings: time post-induction: 4.5 h; library: site-saturation at positions 5, 18, 19, 20
Would you please tag the item true (1) when its shrunken log2 fold change is 0.03 or above, and false (0) when it is below?

1) RRIRTRPPRLPRPRPRPINRPRP ... false (0)
2) RRIRPRPPRLPRPRPRPAHDPRP ... false (0)
3) RRIRQRPPRLPRPRPRPAGYPRP ... false (0)
4) RRIRDRPPRLPRPRPRPTWRPRP ... true (1)
5) RRIRRRPPRLPRPRPRPKFMPRP ... true (1)
6) RRIRKRPPRLPRPRPRPKWQPRP ... true (1)
7) RRIRNRPPRLPRPRPRPFRVPRP ... false (0)
8) RRIRFRPPRLPRPRPRPEPSPRP ... true (1)

---

Tested on: Escherichia coli TOP10;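 note: peptides expressed intracellularly from a pBAD plasmid library in pooled LB shake-flask culture, induced with 0.3% L-arabinose, DNA abundance read by NGS, three biological replicates, DESeq2 with apeglm shrinkage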
Test: shrunken log2 fold change of peptide-encoding DNA abundance (4.5 h post-induction vs induction); higher = less antimicrobial activity (less host growth inhibition)
Details: time post-induction: 4.5 h; library: site-saturation at positions 5, 18, 19, 20
Classify by measured shrunken log2 fold change: yes (1) if it is equal to or exceeds -0.2, no (0) if it is smaller.

1) RRIRLRPPRLPRPRPRPNFNPRP ... yes (1)
2) RRIRARPPRLPRPRPRPTLDPRP ... yes (1)
3) RRIRRRPPRLPRPRPRPYQHPRP ... no (0)
4) RRIRCRPPRLPRPRPRPCFMPRP ... no (0)
5) RRIRMRPPRLPRPRPRPCQDPRP ... yes (1)
6) RRIRYRPPRLPRPRPRPERLPRP ... yes (1)
7) RRIRYRPPRLPRPRPRPLMFPRP ... no (0)
8) RRIRTRPPRLPRPRPRPDKKPRP ... yes (1)
9) RRIRMRPPRLPRPRPRPINHPRP ... yes (1)
10) RRIRQRPPRLPRPRPRPTIYPRP ... no (0)
11) RRIRARPPRLPRPRPRPGDQPRP ... yes (1)
12) RRIRVRPPRLPRPRPRPKNVPRP ... yes (1)
13) RRIRNRPPRLPRPRPRPHTWPRP ... no (0)
14) RRIRFRPPRLPRPRPRPIWPPRP ... yes (1)
15) RRIRRRPPRLPRPRPRPPFKPRP ... yes (1)
